system: MARIMO; experiment: cell viability relative to vehicle control; higher = less cytotoxic; details: 10 µM; SRSF2 genotype: SRSF2 P95H/wt;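 further: after 48 h exposure read by CellTiter-Glo luminescence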
Reported cell viability values are given for each entry in this list.
Value expressed in %; do not type the unit.

Example cases with answers are listed next.
Nc1nc(CC(=O)Nc2ccc(CCNC[C@H](O)c3ccccc3)cc2)cs1 | 103
Cc1cc([C@@H](C)Nc2ccccc2C(=O)O)c2nc(N3CCOCC3)cc(=O)n2c1 | 66.9
OC[C@H]1O[C@H](OC[C@H]2O[C@H](O[C@]3(CO)O[C@H](CO)[C@@H](O)[C@@H]3O)[C@H](O)[C@@H](O)[C@@H]2O)[C@H](O)[C@@H](O)[C@H]1O [Raffinose] | 97.2
O=C(c1cccc(Cl)c1F)N1CCN(Cc2cccc(Nc3nccs3)n2)CC1 | 87.8
CCCCC1C(=O)N(c2ccccc2)N(c2ccccc2)C1=O | 97.2

Query string: Enter measured cell viability, system MARIMO, for the molecule shown: OCC1OC(Oc2ccc(O)cc2)C(O)C(O)C1O (stereo not drawn)
Result string: 104

Query string: Enter measured cell viability, system MARIMO, for the molecule shown: O=C(O)c1ccc(CN2CCC(CN[C@@H]3C[C@H]3c3ccccc3)CC2)cc1
Result string: 92.3

Query string: Enter measured cell viability, system MARIMO, for the molecule shown: CC(C)(C#N)c1cc(Cn2cncn2)cc(C(C)(C)C#N)c1
Result string: 97.4

###

system: MARIMO; experiment: cell viability relative to vehicle control; higher = less cytotoxic; conditions: 10 µM; SRSF2 genotype: SRSF2 wt/wt
Flag rule - cell viability less than 10% flags yes; the remaining entries get no.

Some entries whose results are on file:
CCC[C@H](NC(=O)/C(C#N)=C/c1cccc(Br)n1)c1ccccc1 [Degrasyn (WP1130)] | yes
COc1ccc(-c2ccc3ncc4c(c3c2)n(-c2ccc(N3CCNCC3)c(C(F)(F)F)c2)c(=O)n4C)cn1 | yes
C[C@H](Cc1cc2c(c(C(N)=O)c1)N(CCCO)CC2)NCCOc1ccccc1OCC(F)(F)F | no
Cc1cnc(Nc2ccc(OCCN3CCCC3)cc2)nc1Nc1cccc(S(=O)(=O)NC(C)(C)C)c1 | no
COc1cc(S(=O)(=O)O)ccc1O | no

Now let's try a different one.
Query string: cell viability under 10%? Item: CC(C)=CCC[C@](C)(O[C@@H]1O[C@H](CO)[C@@H](O)[C@H](O)[C@H]1O)[C@H]1CC[C@]2(C)[C@@H]1[C@H](O)C[C@@H]1[C@@]3(C)CC[C@H](O)C(C)(C)[C@@H]3[C@@H](O[C@@H]3O[C@H](CO)[C@@H](O)[C@H](O)[C@H]3O[C@@H]3OC[C@@H](O)[C@H](O)[C@H]3O)C[C@]12C [Notoginsenoside R1]
Result string: no

###

Reported cell viability values are given for each entry in this list.
tested on: MOLM14; experiment: cell viability relative to vehicle control; higher = less cytotoxic; conditions: 10 µM; SRSF2 genotype: SRSF2 P95H/wt
Express the reported value numerically, then name its unit.

O=C(O)c1cc(C(=O)O)c(C(=O)N(Cc2cccc(Oc3ccccc3)c2)[C@H]2CCCc3ccccc32)cc1C(=O)O | 105%
C=CC[N+]1([C@H]2C[C@H]3[C@@H]4CC[C@H]5C[C@H](O)[C@@H](N6CCOCC6)C[C@]5(C)[C@H]4CC[C@]3(C)[C@H]2OC(C)=O)CCCC1 [Rocuronium bromide] | 103%
CN(C)CCCNC(=O)c1ccc(-c2cc(O)c3ncccc3c2)cc1 | 40.7%

Proceed to the following item.
Query string: Tell me cell viability reported for CC(=O)O[C@H](CC=C(C)C)C1=CC(=O)c2c(O)ccc(O)c2C1=O [Acetylshikonin]
Result string: 0.73%

###

test system: MOLM14; assay: cell viability relative to vehicle control; higher = less cytotoxic; conditions: 10 µM; SRSF2 genotype: SRSF2 P95H/wt
Flag rule - cell viability less than 90% flags met; the remaining entries get not met.

C[N+]1(C)[C@@H]2CC[C@H]1C[C@@H](OC(=O)C(O)c1ccccc1)C2 (stereo partly drawn) [Homatropine Methylbromide] | not met
O=c1c(-c2ccc(O)cc2)coc2cc(O)ccc12 [Daidzein] | not met
C[C@@H]1C[C@H]2[C@@H]3CCC4=CC(=O)C=C[C@]4(C)[C@@]3(Cl)[C@@H](O)C[C@]2(C)[C@@]1(OC(=O)c1ccco1)C(=O)CCl [Mometasone furoate] | met
COc1ccc(/C=C/c2cc(O)cc(O)c2)cc1O [Rhapontigenin] | not met
CN1CCN(CCCN2c3ccccc3Sc3ccc(C(F)(F)F)cc32)CC1 [Trifluoperazine 2HCl] | met
CCC(C)CC(C)CCCCCCCCC(=O)NC1CC(O)C(O)NC(=O)C2C(O)CCN2C(=O)C(C(O)CC(N)=O)NC(=O)C(C(O)C(O)c2ccc(O)cc2)NC(=O)C2CC(O)CN2C(=O)C(C(C)O)NC1=O (stereo not drawn) [Pneumocandin B0] | not met
C=C1CCC2C(C)(CO)C(O)CCC2(C)C1CC=C1C=COC1=O (stereo not drawn) [Dehydroandrographolide] | met
O=C(Nc1ccc(Br)cc1)c1c(O)cccc1O [Resorantel] | met

Query string: cell viability under 90%? Item: CSCC1CN(/N=C/c2ccc([N+](=O)[O-])o2)C(=O)O1 (stereo not drawn) [Nifuratel]
Result string: met

Query string: cell viability under 90%? Item: NC1(C(=O)N[C@@H](CCO)c2ccc(Cl)cc2)CCN(c2ncnc3[nH]ccc23)CC1
Result string: met

###

tested on: MOLM14; test: cell viability relative to vehicle control; higher = less cytotoxic; settings: 10 µM; SRSF2 genotype: SRSF2 P95H/wt
Reported cell viability values are given for each entry in this list.

Example cases with answers are listed next.
CC1(C)CCC2(C(=O)O)CCC3=C(CCC4C3(C)CCC3C4(C)CC(O)C(O)C3(C)C(=O)O)C2C1 (stereo not drawn) | 87.7%
COc1cc(OC2CCN(C)CC2)ccc1Nc1ncc2c(n1)n(C1CCCC1)c(=O)n2C | 10.8%
CO[C@@H]1[C@@H](O[C@@H]2O[C@H](C)[C@@H](O[C@H]3C[C@@](C)(O)[C@@H](O)[C@H](C)O3)[C@H](N(C)C)[C@H]2O)[C@@H](CC=O)C[C@@H](C)[C@@H](O[C@H]2CC[C@H](N(C)C)[C@@H](C)O2)/C=C/C=C/C[C@@H](C)OC(=O)C[C@H]1OC(C)=O | 84.4%

Query string: Enter measured cell viability, system MOLM14, for the compound shown: CC(C)(C)c1nc(-c2cccc(NS(=O)(=O)c3c(F)cccc3F)c2F)c(-c2ccnc(N)n2)s1
Result string: 73.6%

Query string: Enter measured cell viability, system MOLM14, for the compound shown: O=C(Cc1ccc(-c2ccc(OCCN3CCOCC3)cc2)cn1)NCc1ccccc1
Result string: 1.55%

Query string: Enter measured cell viability, system MOLM14, for the compound shown: CC#CC(=O)N1CCC[C@H]1c1nc(-c2ccc(C(=O)Nc3ccccn3)cc2)c2c(N)nccn12
Result string: 95.4%

Query string: Enter measured cell viability, system MOLM14, for the compound shown: CCN[C@H]1CN(CCCOC)S(=O)(=O)c2sc(S(N)(=O)=O)cc21 [Brinzolamide]
Result string: 83.2%

Query string: Enter measured cell viability, system MOLM14, for the compound shown: CC(C)c1cc(-c2ccc(F)c3ccccc23)nc(N)n1
Result string: 93.1%

###

Reported cell viability values are given for each entry in this list.
tested on: MARIMO; assay: cell viability relative to vehicle control; higher = less cytotoxic; settings: 10 µM; SRSF2 genotype: SRSF2 wt/wt
Structures can show the parent of a compound that is named as a salt.
Value expressed in %; do not type the unit.

CC[C@H]1OC(=O)[C@H](C)[C@@H](O[C@H]2C[C@@](C)(OC)[C@@H](O)[C@H](C)O2)[C@H](C)[C@@H](O[C@@H]2O[C@H](C)C[C@H](N(C)C)[C@H]2O)[C@](C)(O)C[C@@H](C)C(=O)[C@H](C)[C@@H](O)[C@]1(C)O [Erythromycin thiocyanate] | 91.9
CC(C)(C#N)c1ccc(N2C(=O)OCc3cnc4ccc(-c5cnc6ccccc6c5)cc4c32)cc1 | 92.5
CC1(C)CCC(CN2CCN(c3ccc(C(=O)NS(=O)(=O)c4ccc(NCC5CCOCC5)c([N+](=O)[O-])c4)c(Oc4cnc5[nH]ccc5c4)c3)CC2)=C(c2ccc(Cl)cc2)C1 [Venetoclax (ABT-199, GDC-0199)] | 6.31
CCCNC(C)C(=O)Nc1c(C)csc1C(=O)OC (stereo unspecified) [Articaine HCl] | 106
C[C@@H]1[C@H]2c3cc4c(cc3O[C@@]35OCOC3=CC(=O)[C@H](C[C@H]1C)[C@@H]25)OCO4 [Sauchinone] | 92.9

Proceed to the following item.
Query string: Tell me cell viability reported for Nc1ccc2ncnc(NCCc3ccc(Oc4ccccc4)cc3)c2c1
Result string: 58.3

Ref: the supplement of paper PMC10981050
